- test_method_notes: self-splicing fitness, log relative to wild type (ln ratio); higher = more splicing; Tetrahymena group I intron in knt gene, E. coli kanamycin selection, DiMSum; sequences stand for … in CUCUCU…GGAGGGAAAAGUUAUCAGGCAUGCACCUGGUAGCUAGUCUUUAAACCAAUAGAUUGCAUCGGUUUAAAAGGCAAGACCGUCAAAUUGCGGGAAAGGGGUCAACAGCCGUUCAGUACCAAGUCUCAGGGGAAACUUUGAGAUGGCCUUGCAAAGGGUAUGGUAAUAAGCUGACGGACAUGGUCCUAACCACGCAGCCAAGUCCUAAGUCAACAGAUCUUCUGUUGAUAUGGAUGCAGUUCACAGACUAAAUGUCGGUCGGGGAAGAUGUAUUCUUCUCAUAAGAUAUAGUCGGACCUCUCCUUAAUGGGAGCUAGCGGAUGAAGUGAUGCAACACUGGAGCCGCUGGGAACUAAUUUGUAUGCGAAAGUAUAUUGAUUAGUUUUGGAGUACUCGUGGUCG;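 also: selection with 25 µg/mL kanamycin versus none on LB agar overnight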
- experimental_parameters: 30 °C
Decide by self-splicing fitness (ln): equal to or exceeding -3 means class 1, less means class 0.

1. AACCAGCAAUAUUACGUCCA | class 1
2. CUAGAGCAAUAUUACGGCGA | class 0
3. UCAAAGCAAUAUUACGAACU | class 0
4. GUAUAGCAAUAUUACGCACU | class 1
5. CUAGAGCAAUAUUACGUACA | class 1

Given the entry AUGAAGCAAUAUUACGCAGC , answer whether its self-splicing fitness (ln) meets or surpasses -3.
class 1

What do we get for CCCCAGCAAUAUUACGUGAU ?
class 0
